Experiment: Example 5: plasma pharmacokinetics of EN3202 20 mg in hepatic impairment vs healthy controls
Conditions: human, plasma, oral, 20 mg, AUC, Mild Impairment; mean (SD); single 20 mg EN3202, fasting
experimentalReadout: AUC (ng·h/mL)
Return type: number; implicit unit ng·h/mL.

Value lookup for AUC; key = CN1CC[C@]23c4c5ccc(O)c4O[C@H]2C(=O)CC[C@@]3(O)[C@H]1C5.Cl [Oxymorphone]
32.1

---

Assay: Example 5: plasma pharmacokinetics of EN3202 20 mg in hepatic impairment vs healthy controls
Details: human, plasma, oral, 20 mg, Cmax, range among subjects, moderate-severe impairment
experimentalReadout: Cmax

Value lookup for Cmax; key = CN1CC[C@]23c4c5ccc(O)c4O[C@H]2C(=O)CC[C@@]3(O)[C@H]1C5.Cl [Oxymorphone]
1.66 to 23.6 ng/mL

---

Assay: Example 5: plasma pharmacokinetics of EN3202 20 mg in hepatic impairment vs healthy controls
Conditions: human, plasma, oral, 20 mg, Cmax, Mild Impairment; mean (SD)
experimentalReadout: Cmax (ng/mL)
Return type: number; implicit unit ng/mL.

Value lookup for Cmax; key = CN1CC[C@]23c4c5ccc(O)c4O[C@H]2C(=O)CC[C@@]3(O)[C@H]1C5.Cl [Oxymorphone]
3.98

---

Experiment: Example 5: plasma pharmacokinetics of EN3202 20 mg in hepatic impairment vs healthy controls
Conditions: human, plasma, oral, 20 mg, plasma elimination half-life, Subject 011
experimentalReadout: half-life (h)
Return type: number; implicit unit h.

Value lookup for half-life; key = CN1CC[C@]23c4c5ccc(O)c4O[C@H]2C(=O)CC[C@@]3(O)[C@H]1C5.Cl
10.7

---

Assay: Example 5: plasma pharmacokinetics of EN3202 20 mg in hepatic impairment vs healthy controls
Details: human, plasma, oral, 20 mg, AUC, Subject 007 (Child-Pugh Class A)
Method: While in the clinic, the subjects were to refrain from strenuous physical activity. All study medications were supplied by the sponsor. […] A single 20 mg dose EN3202 was administered following an overnight fast (from approximately 22:00 on the evening prior to dose administration) at approximately 08:00, and participants were not allowed to eat until at least four hours after the dose. […] Pharmacokinetic parameters were calculated using model-independent methods. […]
experimentalReadout: AUC

Value lookup for AUC; key = CN1CC[C@]23c4c5ccc(O)c4O[C@H]2C(=O)CC[C@@]3(O)[C@H]1C5.Cl
74.8 ng·h/mL

---

Assay: Example 5: plasma pharmacokinetics of EN3202 20 mg in hepatic impairment vs healthy controls
Settings: human, plasma, oral, 20 mg, AUC, Healthy Controls; mean (SD); single 20 mg EN3202, fasting
experimentalReadout: AUC (ng·h/mL)
Return type: number; implicit unit ng·h/mL.

Value lookup for AUC; key = CN1CC[C@]23c4c5ccc(O)c4O[C@H]2C(=O)CC[C@@]3(O)[C@H]1C5.Cl
20.6

---

Assay: Example 5: plasma pharmacokinetics of EN3202 20 mg in hepatic impairment vs healthy controls
Details: human, plasma, oral, 20 mg, Tmax, Moderate-Severe Impairment; median (range)
experimentalReadout: Tmax (h)
Return type: number; implicit unit h.

Value lookup for Tmax; key = CN1CC[C@]23c4c5ccc(O)c4O[C@H]2C(=O)CC[C@@]3(O)[C@H]1C5.Cl
1.5

---

Experiment: Example 5: plasma pharmacokinetics of EN3202 20 mg in hepatic impairment vs healthy controls
Details: human, plasma, oral, 20 mg, T½, Mild Impairment; mean (SD)
experimentalReadout: half-life (h)
Return type: number; implicit unit h.

Value lookup for half-life; key = CN1CC[C@]23c4c5ccc(O)c4O[C@H]2C(=O)CC[C@@]3(O)[C@H]1C5.Cl
11.8

Origin of measurements: patent US20080318993A1
